Recorded melting point for the following molecules

Some molecules with recorded melting point:
- CC1(C)C(=O)Nc2ccc(-c3ccc(C#N)[nH]3)cc21: 256 to 258 °C
- CCCCNc1nc(C)no1: 62 to 65 °C
- O=C(O)Cc1cc([N+](=O)[O-])ccc1Sc1cccc(Br)c1: 123 to 125 °C
- CCc1c(OC)nc(OC)nc1C(=O)c1cc(C)cc(C=O)c1: 89 to 91 °C
- CC1=C2C(=C(c3ccccc3Cl)N=CC(=O)N2C)NO1: 136 to 138 °C

Param item = `Cc1cc(-c2cccc3c2C(=O)OC(C)(C)O3)on1` ; retrieve measured melting point.
74 °C

Bench note: what melting point did `CCOC(=O)CC(=O)Nc1cccc2ccccc12` show?
80 to 81 °C

I have this molecule here, `CSc1nn(-c2c(Cl)cc(Cl)cc2Cl)c(N)c1C(N)=O` , and I need its recorded melting point.
198 to 199 °C

# query: melting point of entry `CCc1nn2c(-c3ccccc3)ccnc2c1C#N`
132 to 134 °C

----------
recorded_endpoint: melting point

Reference set, count: 3
- CCCCCCCCc1c(C)[nH]c(C)c(C#N)c1=O: 205 to 206 °C
- O=C(N(C1CCNCC1)C1CC1)N1N=C2c3cc(F)ccc3OC[C@@H]2[C@@H]1c1ccccc1 (racemic): 142 °C
- O=C(Nc1cc(O)c(Cl)cc1F)OCc1ccccc1: 70 to 72 °C

// melting point lookup, key: `O=C(O)/C=C/c1ccc(OS(=O)(=O)C(F)(F)F)cc1`
194 °C

# input compound: `Nc1nccc(N2CCc3ccccc32)n1` ; wanted: its melting point
177 to 179 °C

Give the measured melting point of CC(=O)OC[C@H]1OC(OC(C)=O)[C@H](OC(C)=O)[C@@H](F)[C@@H]1OC(C)=O (stereo not given in full) .
115 to 121 °C

Looking for the measured melting point of `CCN(CC)C(=O)COc1ccc(C(=O)CBr)cc1OC` , can you help?
101 to 103 °C

Which melting point reading was recorded for the compound `CC(C)C(=O)Oc1ccc(C(=O)c2ccc(OC(=O)C(C)C)cc2)cc1` ?
144 °C

Any idea what melting point was measured for `CCCCOCCOc1ccc(-c2cnc3c(c2)C=C(C(=O)O)CCCN3CCC)cc1` ?
123 to 125 °C

Name the reported melting point value associated with the compound `O=[N+]([O-])c1ccc2c(c1)ncn2-c1ccccc1`
129 to 131 °C

----------
So basically: is melting point under 200 °C? Then T. Not under? Then F.

* NS(=O)(=O)c1c(S)cccc1C(F)(F)F | T
* COc1cc(OC)nc(NC(=O)NS(=O)(=O)Nc2c(C)csc2C)n1 | T
* O=C(NC(Cc1ccc(NCc2ccccc2)cc1)C(=O)O)c1cn2cc(-c3ccc(Cl)cc3)ccc2n1 (stereo not given) | F

# evaluate next
For O=C(NC(Cc1ccc(OCc2ccc(Cl)cc2)cc1)C(=O)O)c1cn2ccc(-c3ccc(Cl)cc3)cc2n1 (stereo not given) , is the recorded melting point below the cut-off of 200 °C?
F

----------
recorded_endpoint: melting point

GET /values?readout=melting point&item= `COC(=O)c1cccc(C=Cc2nc3cc(F)ccc3s2)c1`
172 to 173 °C

What does the record list as melting point for O=c1ccoc(C(O)c2ccccc2)c1OCc1ccccc1 (centres undefined) ?
121 to 122 °C

Consider the compound C=CCC(CC1CC2CCN1CC2)(c1ccccc1)c1ccccc1 (centres undefined) and give its measured melting point.
95.5 to 98 °C

Need melting point of COC(=O)c1cccc(C(=O)NC2N=C(c3ccccc3F)c3ccccc3N(CC(=O)N3CC4CCC(CC4)C3)C2=O)c1 (racemic) , thanks.
166 to 177 °C

Fill in: melting point of CC(C)(C)OC(=O)N[C@@H](C(=O)N1CCC[C@H]1C(=O)NCC1CCc2nc(N)ncc2C1)C(c1ccccc1)c1ccccc1 (some centres undefined) is ___
127 to 130 °C

----------
recorded_endpoint: melting point

* CC1(C)CCc2c(-c3ccco3)nc3sc4c(NCc5ccccn5)ncnc4c3c2C1 | 233 °C
* COC(=O)c1cc2ccc(C)cc2n1C(C)=O | 51 to 53 °C
* COc1ccc(Cl)cc1C(=N)Nc1cc(Cl)cc(NC(=O)/C=C/c2ccccc2Cl)c1 | 226 to 228 °C
* CCOC(=O)c1csc(-c2ccc3cc(C(=O)OCc4ccccc4)c(C45CC6CC(CC(C6)C4)C5)cc3c2)c1 | 98 to 100 °C
* CCc1c(C(=O)O)[nH]c2c1C(=O)CC(C)(C)C2 | > 198 °C

# get_value(readout='melting point', item= CCC(C)Nc1c(-c2c(F)cc(F)cc2F)c(F)nc2ncncc12 (stereo not given) )
199 °C

----------
recorded_endpoint: melting point

Check out these entries, answers already filled in.
- O=C(O)C(Cc1occ2ccccc12)NC(=O)C(CS)C(F)(F)F (stereo not given): 143 to 145 °C
- CN(C)C(=O)C1(N2C(=O)c3cccc(Cl)c3C2=O)CCCCC1: 135 to 137 °C
- Cc1nc(Sc2cccc(C(=O)O)n2)sc1CC(=O)O: 211 to 213 °C
- CCOc1cc(C)c(CCc2ccc(OC)c(OC)c2)cc1OC: 38.4 °C

We now examine a further compound.
I'd like to know its melting point. The compound in question is `O=C(O)c1ncc(C(c2ccccc2)c2ccccc2)cc1C(c1ccccc1)c1ccccc1`
172 to 175 °C

----------
Overview of reported melting point across a group of molecules:

The cases that follow already have their melting point on record.
* CCOC(=O)c1cc2ccc(Cl)c(NS(=O)(=O)c3cccs3)c2[nH]1 | 191 to 192 °C
* COc1ccc(-c2ccccc2)cc1[N+]([O-])=NC(=O)OC(C)C | 102 to 106 °C
* NC(=O)CCCC1(c2ccccc2)CC(O)=CC(=O)O1 (stereo unspecified) | 51 to 54 °C
* CN(C)c1ccn2nc(S(=O)(=O)Nc3c(Cl)cccc3Cl)nc2n1 | > 310 °C
* CCCc1c(OCc2cccc(C(=O)OC)c2)ccc(C(C)=O)c1O | 141 to 143 °C

Switching to the query record.
Which value of melting point has been reported for `CS(=O)(=O)c1ccc(-n2nc(C(F)(F)F)cc2-c2ccc(C#Cc3ccccc3)cc2)cc1` in the records?
170 to 172 °C

----------
The following molecules are shown together with reported melting point values.

In the examples that follow, each entry is paired with its recorded melting point.
- Cc1ccccc1C(=O)Nc1ccc(C(=O)N2Cc3ccccc3C(=O)c3ccccc32)cc1: 115 to 119 °C
- CC(=O)OCC(C)(C)c1ccc(S(=O)(=O)Nc2ncnc(Cl)c2-c2ccc(C)cc2)cc1: 188 to 189 °C
- N#Cc1c(N)nc2ccccc2c1NCc1ccccc1: 206 °C
- O=C(Cl)Cc1ccccc1NS(=O)(=O)C(F)(F)F: 94 to 95 °C
- COCOc1ccccc1-c1ccc(-c2ccc(C(=O)O)cc2)cc1-c1ccc2c(c1)C(C)(C)CCC2(C)C: 132 to 135 °C
- O=C(CC1CCCCC1=O)c1ccc(-c2ccccc2)cc1 (stereo unspecified): 108 to 112 °C

Record request: melting point value, item `O=C1C=C(C(F)(F)F)N(Br)CN1c1ccc(C(F)(F)F)cn1`
142 to 143 °C

Reported melting point, molecule `Cc1ccc(CSc2nnc(-c3ccc4c(c3)CCO4)o2)cc1` : ____
190 to 191 °C

Which melting point reading was recorded for the molecule `COc1nc(C)nc(C(F)(F)F)c1I` ?
44 to 45 °C

Look up melting point: `COc1cc2c(c(C(C)C)c1OC)C(=O)N(CCl)S2(=O)=O`
117 to 119 °C

Find the recorded melting point belonging to `CC1(N)CN(c2c(F)cc3c(=O)c4c(=O)[nH]sc4n(C4CC4)c3c2F)C1` and report it.
294 to 300 °C

----------
Listed here are compounds together with their documented melting point.

Data request, read-out melting point, for `CCOC(=O)C(C)(C)n1c(=O)[nH]c2ccc(Cl)cc2c1=O`
179 to 180 °C

----------
This section presents compounds with their documented melting point values.

Recorded results for 10 compounds are shown here.
* CCCOC(=O)C1=C(C)NC(C#N)=C(C(=O)OC)C1c1ccccc1C#N (stereo not given) | 150 to 152 °C
* O=[N+]([O-])c1cccnc1Cc1ccccc1 | 72 °C
* CN1C(=O)C[C@@H](c2ccccc2)[C@H]1C(=O)c1ccccc1 | 115 to 116 °C
* CN(Cc1cc2c3c(c1)c(=O)c(C(=O)NCc1ccc(F)cc1)cn3CC(=O)N2C)C[C@@H](O)c1ccco1 | 150 to 152 °C
* Cn1cc(C(N)=O)c(=O)c2sc(Cl)cc21 | 325 to 327 °C
* O=C1NCc2ccccc2N1 | 142 °C
* Cn1c(C(N)=O)nc([N+](=O)[O-])c1CBr | 220 to 222 °C
* CC(C)C[C@H](NC(=O)c1c(F)cccc1F)C(=O)N[C@@H](C(C)C)[C@@H](O)c1c(-c2ccccc2)c1=O | 111 to 122 °C
* Cc1oc(-c2ccccc2)nc1COc1ccc(CON=C(CCC(=O)O)c2ccc(F)cc2)cc1 | 139 to 140 °C
* O=C(O)[C@H](Cc1ccccc1)Nc1c(NCc2ccccc2)c(=O)c1=O | 215 to 216 °C

Quick one: melting point of `CCCCc1nc2cscc2n1Cc1ccc(-c2ccccc2C(=O)O)cc1` ?
168 °C

Tell me the measured melting point of `O=C(O)c1csc(-c2ccc3cc(O)c(C45CC6CC(CC(C6)C4)C5)cc3c2)c1` , please.
312 to 314 °C

Look up melting point: `COC(=O)c1[nH]c2c(C)ccc(C)c2c1-c1ccccc1`
143 to 145 °C

Field request: melting point | item: `c1ccc(CCN2CCC(c3cc(-c4ccccn4)[nH]n3)CC2)cc1`
155 to 157 °C

Given the compound CN(C)CC1CCc2cc(NC(=O)c3ccc(-c4ccc(N)cc4)cc3)ccc2C1 (stereo not given) , what is its reported melting point?
148 to 150 °C

Need melting point, item `C=CC(=O)N(c1cc(-n2ncc(=O)n(C)c2=O)c(F)cc1C#N)S(=O)(=O)CC`
118 °C

Request the reported melting point associated with `S=c1nc(-c2ccc(-c3ccccc3)cc2)[nH]n1Cc1ccccc1`
249 to 250 °C

Reported melting point for `COC(=O)C=Cc1ccc(C(=O)NC[C@H](NC(=O)OCc2ccccc2)C(=O)OC(C)(C)C)s1` : what is it?
98 °C

Entry under review: `Cc1ccc(/C=C/C(=O)Nc2cccc(NC(=N)c3ccccc3)c2)cc1` . Reported melting point?
147 to 149 °C

For `N#CC1(c2ccccc2)CCC2(CC1)OCCO2` , what is its reported melting point?
108 to 110 °C
